// data source = paper PMC10485003

# experimental-target: wt-HVGH TtIleRS2 (Thermus thermophilus)
# Construct: hexa-histidine tag (pET28b(+)) (N); made in house; host or cells: E. coli Rosetta2 (DE3)
# Sequence (P56690 1-1043): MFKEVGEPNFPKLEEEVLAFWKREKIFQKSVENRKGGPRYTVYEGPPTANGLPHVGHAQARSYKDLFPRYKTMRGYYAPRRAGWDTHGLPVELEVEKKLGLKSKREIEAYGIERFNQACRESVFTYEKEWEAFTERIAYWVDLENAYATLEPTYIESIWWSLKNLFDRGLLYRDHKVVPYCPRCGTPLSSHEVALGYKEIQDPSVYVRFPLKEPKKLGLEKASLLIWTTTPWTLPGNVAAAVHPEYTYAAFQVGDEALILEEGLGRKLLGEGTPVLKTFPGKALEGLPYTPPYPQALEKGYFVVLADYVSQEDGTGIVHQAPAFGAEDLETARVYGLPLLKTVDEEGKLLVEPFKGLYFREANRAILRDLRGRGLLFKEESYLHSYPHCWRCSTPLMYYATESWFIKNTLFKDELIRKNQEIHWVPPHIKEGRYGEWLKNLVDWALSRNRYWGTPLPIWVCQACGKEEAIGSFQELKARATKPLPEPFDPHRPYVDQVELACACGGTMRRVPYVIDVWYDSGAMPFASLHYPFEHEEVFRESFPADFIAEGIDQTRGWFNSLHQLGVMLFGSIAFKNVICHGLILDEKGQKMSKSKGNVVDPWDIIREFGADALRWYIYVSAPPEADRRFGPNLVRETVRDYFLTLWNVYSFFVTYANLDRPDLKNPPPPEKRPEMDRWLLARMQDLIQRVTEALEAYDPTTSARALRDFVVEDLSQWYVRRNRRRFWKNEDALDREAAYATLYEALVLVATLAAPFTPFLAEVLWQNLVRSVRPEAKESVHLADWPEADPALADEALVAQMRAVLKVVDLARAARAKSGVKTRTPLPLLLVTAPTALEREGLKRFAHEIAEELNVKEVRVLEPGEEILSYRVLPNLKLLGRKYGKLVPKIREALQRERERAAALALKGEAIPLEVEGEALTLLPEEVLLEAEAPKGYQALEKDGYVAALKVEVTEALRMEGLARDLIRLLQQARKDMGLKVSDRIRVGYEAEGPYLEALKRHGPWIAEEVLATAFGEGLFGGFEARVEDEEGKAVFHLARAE
# method-notes: ATP-PPi exchange assay, mupirocin inhibition of amino acid activation
# Format: biochemical
# run-parameters: KI (MUP)Ile, amino acid activation step; ATP/PPi exchange assay; Ile varied, ATP saturating; average ± SD of three independent experiments
reported-metric: pKi
When answering, recall that pKi equals minus log10 of the concentration in mol/L, and write that number alone.

get_value(item= C/C(=C\C(=O)OCCCCCCCCC(=O)O)C[C@@H]1OC[C@H](C[C@@H]2O[C@H]2[C@@H](C)[C@H](C)O)[C@@H](O)[C@H]1O , readout=pKi) returns 6.70
